Here, each record is paired with measured glycan array binding signal (z-score) data.
Test Target: Neu5Ac(a2-6)Gal(b1-4)GlcNAc
Assay Info: glycan array binding signal (z-score within array); higher = stronger binding
Condition Info: glycan notation: IUPAC condensed, linker removed
The sample as a whole holds a higher share of the strongest signals than the screen did.
Property Name: glycan array binding signal (z-score)

{"Binder": "CpGal16 (Clavelina picta) (protein) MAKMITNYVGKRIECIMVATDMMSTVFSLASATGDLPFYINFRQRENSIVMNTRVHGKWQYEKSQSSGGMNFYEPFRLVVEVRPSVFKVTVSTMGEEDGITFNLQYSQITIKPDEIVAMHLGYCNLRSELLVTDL", "Measured Number": -0.456}
{"Binder": "CML1 (Coprinopsis cinerea) (protein) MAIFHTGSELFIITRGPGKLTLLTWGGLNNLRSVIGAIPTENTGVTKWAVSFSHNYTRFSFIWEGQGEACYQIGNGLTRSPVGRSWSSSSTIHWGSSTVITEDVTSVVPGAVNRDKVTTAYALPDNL", "Measured Number": -0.352}
{"Binder": "MVL (Microcystis viridis), Q9RHG4 (protein) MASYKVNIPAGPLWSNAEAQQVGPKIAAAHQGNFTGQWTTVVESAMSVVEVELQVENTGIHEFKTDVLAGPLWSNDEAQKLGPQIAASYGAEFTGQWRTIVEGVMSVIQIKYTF", "Measured Number": -0.241}
{"Binder": "CFEM-SCL (Saccharomyces cerevisiae), O13547 (protein) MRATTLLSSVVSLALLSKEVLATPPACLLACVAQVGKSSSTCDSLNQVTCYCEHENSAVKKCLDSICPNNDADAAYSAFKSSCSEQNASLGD", "Measured Number": -0.282}
{"Binder": "Neuropilin-1 (Homo sapiens), O14786 (protein) FKCMEALGMESGEIHSDQITASSQYSTNWSAERSRLNYPENGWTPGEDSYREWIQVDLGLLRFVTAVGTQGAISKETKKKYYVKTYKIDVSSNGEDWITIKEGNKPVLFQGNTNPTDVVVAVFPKPLITRFVRIKPATWETGISMRFEVYGCKITDYPCSGMLGMVSGLISDSQITSSNQGDRNWMPENIRLVTSRSGWALPPAPHSYINEWLQIDLGEEKIVRGIIIQGGKHRENKVFMRKFKIGYSNNGSDWKMIMDDSKRKAKSFEGNNNYDTPELRTFPALSTRFIRIYPERATHGGLGLRMELLGCEVE", "Measured Number": -0.254}
{"Binder": "SLR2P3F12 (Tachypleus tridentatus), TAL2_TACTR (protein) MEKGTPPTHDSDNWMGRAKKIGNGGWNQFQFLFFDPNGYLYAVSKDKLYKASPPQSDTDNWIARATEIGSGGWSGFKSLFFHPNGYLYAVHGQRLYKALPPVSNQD", "Measured Number": -0.317}
{"Binder": "BDCA-2 (Homo sapiens), Q8WTT0 (protein) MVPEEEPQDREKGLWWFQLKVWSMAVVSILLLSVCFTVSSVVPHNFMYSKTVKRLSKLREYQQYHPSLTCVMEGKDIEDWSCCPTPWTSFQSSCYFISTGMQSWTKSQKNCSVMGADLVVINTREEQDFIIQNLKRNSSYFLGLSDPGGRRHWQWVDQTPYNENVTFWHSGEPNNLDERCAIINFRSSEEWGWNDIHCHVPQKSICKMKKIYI", "Measured Number": -0.282}
